Dear all, I have gathered published Ki values for the protein given by its sequence; the list follows.
Target chain: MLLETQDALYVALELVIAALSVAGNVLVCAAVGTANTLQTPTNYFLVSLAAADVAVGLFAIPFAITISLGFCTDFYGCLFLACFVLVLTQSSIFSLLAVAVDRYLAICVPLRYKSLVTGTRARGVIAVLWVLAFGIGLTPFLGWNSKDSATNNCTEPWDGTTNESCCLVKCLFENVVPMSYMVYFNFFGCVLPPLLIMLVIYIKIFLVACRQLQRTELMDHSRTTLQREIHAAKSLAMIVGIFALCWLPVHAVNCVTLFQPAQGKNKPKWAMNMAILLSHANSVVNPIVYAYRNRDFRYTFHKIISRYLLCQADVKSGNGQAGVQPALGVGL
PROPERTY: Ki (nM)

Solved entries (count: 3):
# SMILES TEXT, Ki / nM
measured = [
    ("COc1ccc(-c2nc3c([nH]2)c(=O)n(C)c(=O)n3C)cc1OCC(=O)NCCN(C)C", 4800),
    ("Cc1cc(-c2sc(NC(=O)N3CC4(COC4)C3)nc2-c2cccc(C#N)c2C)cc(C)n1", 6),
    ("Cc1nsc(Nc2nnc(-c3ccnc(C(F)(F)F)c3)c(-c3ccccc3F)n2)n1", 891),
]

P: Cc1cc(-c2sc(NC(=O)N3CCC4(CC3)CNC(=O)N4C)nc2-c2cccc(C#N)c2)cc(C)n1
Q: CCN(CC)CCNC(=O)COc1cc(-c2nc3c([nH]2)c(=O)n(C)c(=O)n3C)ccc1OC
Could you tell me which of these two has the smaller Ki figure? First: P Second: Q In your reply, give the label of the chosen option. P
(P: 1.2 nM, Q: 8050 nM)

a: COc1cc(-c2nc3c([nH]2)c(=O)n(C)c(=O)n3C)ccc1OCC(=O)NCCN(C)C
b: Cc1cc(-c2sc(NC(=O)N3CC[C@H]3CO)nc2-c2cccc(C#N)c2)cc(C)n1
c: Cc1cc(-c2sc(NC(=O)N3CCC(C)(C#N)CC3)nc2-c2cccc(C#N)c2)c(F)c(C)n1
d: Cn1c(=O)c2[nH]c(-c3ccc(OCC(=O)N4CCCCCC4)cc3)nc2n(C)c1=O
Write the entries in order, lowest recorded Ki first. As an answer, provide the labels arranged in the order called for. c, b, d, a
(c: 0.6 nM, b: 3.7 nM, d: 443 nM, a: 10000 nM)

###

Target chain: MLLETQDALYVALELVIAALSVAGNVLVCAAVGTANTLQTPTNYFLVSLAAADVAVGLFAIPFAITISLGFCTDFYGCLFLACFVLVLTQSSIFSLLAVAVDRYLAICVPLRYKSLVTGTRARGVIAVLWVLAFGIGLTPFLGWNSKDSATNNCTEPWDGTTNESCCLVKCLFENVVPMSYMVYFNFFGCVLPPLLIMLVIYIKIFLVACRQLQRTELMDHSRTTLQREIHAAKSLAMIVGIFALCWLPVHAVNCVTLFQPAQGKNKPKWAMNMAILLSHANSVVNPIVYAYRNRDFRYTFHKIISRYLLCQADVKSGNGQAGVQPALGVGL
Header: Ki / the protein given by its sequence / multiple publications
PROPERTY: Ki (nM)

A: CCCn1c(=O)c2[nH]c(-c3ccc(C=CC(=O)O)cc3)nc2n(CCC)c1=O
B: Cc1cc(-c2sc(NC(=O)N3CCC4(CC3)CNC(=O)O4)nc2-c2cccc(C#N)c2)cc(C)n1
C: Cn1c(=O)c2[nH]c(-c3cccc(OCC(=O)N4CCCCCC4)c3)nc2n(C)c1=O
D: Cc1cc(-c2sc(NC(=O)N3CC4(CNC(=O)C4)C3)nc2-c2cccc(C#N)c2)cc(C)n1
Ordering criterion: Ki; begin with the maximum. # respond with the labels, arranged in the requested order C, A, D, B
(C: 6280 nM, A: 51.6 nM, D: 2.4 nM, B: 1.2 nM)
